Molecular target: IKZF2 (Homo sapiens (Human), UniProt Q96SW2+Q9UKS7)
Sequence (Q9UKS7 whole entry): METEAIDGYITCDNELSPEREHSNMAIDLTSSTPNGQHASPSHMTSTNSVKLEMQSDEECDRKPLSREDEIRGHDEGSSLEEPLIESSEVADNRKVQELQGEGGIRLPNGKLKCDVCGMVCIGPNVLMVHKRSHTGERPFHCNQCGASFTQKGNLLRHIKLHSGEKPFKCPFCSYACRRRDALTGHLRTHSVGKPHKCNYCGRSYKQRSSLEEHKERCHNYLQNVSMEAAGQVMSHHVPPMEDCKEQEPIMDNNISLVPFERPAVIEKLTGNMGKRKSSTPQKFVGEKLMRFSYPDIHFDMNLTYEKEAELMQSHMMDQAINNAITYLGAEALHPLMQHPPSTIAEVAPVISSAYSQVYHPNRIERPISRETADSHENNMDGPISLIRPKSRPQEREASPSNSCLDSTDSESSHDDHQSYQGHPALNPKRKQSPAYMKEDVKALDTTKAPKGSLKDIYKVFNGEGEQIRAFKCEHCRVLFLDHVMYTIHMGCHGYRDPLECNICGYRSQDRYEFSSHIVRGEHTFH
Sequence (Q96SW2 whole entry): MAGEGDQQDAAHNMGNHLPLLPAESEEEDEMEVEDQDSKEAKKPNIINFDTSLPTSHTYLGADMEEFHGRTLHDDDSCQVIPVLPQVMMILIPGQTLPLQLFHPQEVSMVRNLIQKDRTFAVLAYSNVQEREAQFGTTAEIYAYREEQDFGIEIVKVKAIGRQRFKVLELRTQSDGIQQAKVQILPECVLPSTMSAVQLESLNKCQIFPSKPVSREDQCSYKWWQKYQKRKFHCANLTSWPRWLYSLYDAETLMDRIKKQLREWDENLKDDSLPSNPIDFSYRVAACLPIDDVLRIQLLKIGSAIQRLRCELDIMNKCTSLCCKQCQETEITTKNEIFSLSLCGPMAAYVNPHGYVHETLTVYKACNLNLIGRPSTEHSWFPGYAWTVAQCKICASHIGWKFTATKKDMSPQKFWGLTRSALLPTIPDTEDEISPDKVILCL
Sequence (Q16531 whole entry partner): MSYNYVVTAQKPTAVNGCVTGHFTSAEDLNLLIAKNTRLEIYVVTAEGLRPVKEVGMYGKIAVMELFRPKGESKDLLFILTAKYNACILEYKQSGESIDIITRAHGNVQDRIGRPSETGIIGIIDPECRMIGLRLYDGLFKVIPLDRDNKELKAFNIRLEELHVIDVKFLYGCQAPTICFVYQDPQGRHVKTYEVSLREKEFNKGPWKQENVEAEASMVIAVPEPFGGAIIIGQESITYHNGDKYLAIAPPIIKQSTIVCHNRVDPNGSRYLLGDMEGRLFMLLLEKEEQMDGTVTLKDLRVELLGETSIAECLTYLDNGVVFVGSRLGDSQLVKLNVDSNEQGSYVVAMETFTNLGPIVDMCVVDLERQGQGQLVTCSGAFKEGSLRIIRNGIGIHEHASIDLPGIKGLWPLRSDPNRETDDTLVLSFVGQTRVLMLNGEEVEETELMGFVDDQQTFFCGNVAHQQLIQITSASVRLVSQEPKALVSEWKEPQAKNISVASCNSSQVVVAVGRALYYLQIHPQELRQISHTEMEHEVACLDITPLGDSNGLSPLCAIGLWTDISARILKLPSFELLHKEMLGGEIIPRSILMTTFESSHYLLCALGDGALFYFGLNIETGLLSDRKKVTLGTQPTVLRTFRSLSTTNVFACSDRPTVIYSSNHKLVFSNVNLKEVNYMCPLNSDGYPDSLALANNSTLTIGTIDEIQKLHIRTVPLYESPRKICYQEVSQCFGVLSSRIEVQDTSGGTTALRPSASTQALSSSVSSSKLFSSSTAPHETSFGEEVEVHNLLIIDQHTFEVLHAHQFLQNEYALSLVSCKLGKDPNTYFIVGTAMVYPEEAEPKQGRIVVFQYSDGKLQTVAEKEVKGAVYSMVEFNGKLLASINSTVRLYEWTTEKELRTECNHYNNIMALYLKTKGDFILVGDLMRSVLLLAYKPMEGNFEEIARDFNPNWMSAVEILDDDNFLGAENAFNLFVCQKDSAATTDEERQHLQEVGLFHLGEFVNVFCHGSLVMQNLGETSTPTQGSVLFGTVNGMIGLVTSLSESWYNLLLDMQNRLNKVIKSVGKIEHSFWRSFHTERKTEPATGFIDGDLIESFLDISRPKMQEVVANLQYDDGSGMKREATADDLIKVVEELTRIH
Assay: IKZF2 HiBiT Assay (Jurkat-IKZF2-HiBiT cell line)
Format: cell-based
Settings: Jurkat-IKZF2-HiBiT cells, 24 hours; read-out: HiBit assay degradation analysis Dmax
The reader will find reported Dmax values listed item by item below.

Recorded Dmax, per entry:
compound | Dmax
O=C1CCC(N2Cc3c(ccc4c3OCC43CCN(Cc4ccn(-c5ccc(Cl)cc5)n4)CC3)C2=O)C(=O)N1 (centres unmarked) | 60 to 80%
Cn1ccc(-c2cccc(CN3CCC4(CC3)COc3c4ccc4c3CN(C3CCC(=O)NC3=O)C4=O)c2)n1 (centres unmarked) | 60 to 80%

I am curious: what Dmax value has been reported for CC(C)n1cc(-c2cccc(CN3CCC4(CC3)COc3c4ccc4c3CN(C3CCC(=O)NC3=O)C4=O)c2)cn1 (centres unmarked) ?
60 to 80%

Tell me the measured Dmax of O=C1CCC(N2Cc3c(ccc4c3OCC43CCN(Cc4ccc5c(c4)OC(F)(F)O5)CC3)C2=O)C(=O)N1 (centres unmarked) , please.
< 40%

Which measured Dmax value corresponds to O=C1CCC(N2Cc3c(ccc4c3OCC43CCN(Cc4ccc5c(cnn5CCO)c4)CC3)C2=O)C(=O)N1 (centres unmarked) ?
40 to 60%

Measured values drawn from patent US20250215012A1 for this set.
